Answer each item with its documented pKi.
target: D(2) dopamine receptor (Rattus norvegicus, UniProt P61169); assay: Displacement of [3H]- raclopride from rat striatum Dopamine receptor D2
Sequence (P61169 whole entry): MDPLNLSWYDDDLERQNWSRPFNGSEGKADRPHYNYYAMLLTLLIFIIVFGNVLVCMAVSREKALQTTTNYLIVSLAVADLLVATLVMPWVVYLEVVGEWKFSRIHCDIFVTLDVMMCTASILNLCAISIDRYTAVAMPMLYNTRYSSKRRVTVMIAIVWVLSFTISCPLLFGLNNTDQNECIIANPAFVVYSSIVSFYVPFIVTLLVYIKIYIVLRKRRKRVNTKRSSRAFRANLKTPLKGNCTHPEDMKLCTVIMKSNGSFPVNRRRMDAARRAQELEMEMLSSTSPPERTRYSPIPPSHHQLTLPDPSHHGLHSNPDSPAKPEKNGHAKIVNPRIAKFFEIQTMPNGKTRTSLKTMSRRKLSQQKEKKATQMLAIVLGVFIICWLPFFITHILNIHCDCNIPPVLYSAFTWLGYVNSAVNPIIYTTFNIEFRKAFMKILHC
pKi: −log10 of the molar value.

Please give the documented pKi of Cn1c(=O)sc2cc(CCN3CCN(Cc4ccccc4)CC3)ccc21
< 5.00

Please give the documented pKi of C[C@@H]1CN(CCCCc2ccc3c(c2)sc(=O)n3C)C[C@H](C)N1
< 4.00

Please give the documented pKi of Cn1c(=O)sc2cc(CCN3CCC(Cc4ccccc4)CC3)ccc21
< 7.00

Please give the documented pKi of C[C@@H]1CN(CCc2ccc3c(c2)sc(=O)n3C)C[C@H](C)N1
< 5.00
